These entries and their values trace back to the supplement of paper PMC7877785.

experiment: self-splicing fitness, log relative to wild type (ln ratio); higher = more splicing; Tetrahymena group I intron in knt gene, E. coli kanamycin selection, DiMSum; sequences stand for … in CUCUCU…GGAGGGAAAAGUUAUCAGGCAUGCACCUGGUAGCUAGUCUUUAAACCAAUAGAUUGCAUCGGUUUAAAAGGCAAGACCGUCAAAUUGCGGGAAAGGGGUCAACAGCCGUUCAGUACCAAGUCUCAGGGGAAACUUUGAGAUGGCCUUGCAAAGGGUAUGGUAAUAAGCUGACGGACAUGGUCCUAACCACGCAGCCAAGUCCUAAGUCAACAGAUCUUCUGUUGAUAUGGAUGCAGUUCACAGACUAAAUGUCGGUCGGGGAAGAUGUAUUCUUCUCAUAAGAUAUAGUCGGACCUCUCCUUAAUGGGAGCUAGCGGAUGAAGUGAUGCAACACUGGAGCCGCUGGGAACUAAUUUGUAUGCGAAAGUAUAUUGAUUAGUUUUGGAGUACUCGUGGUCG; conditions: 30 °C;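 further: selection with 25 µg/mL kanamycin versus none on LB agar overnight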
Endpoint: self-splicing fitness (ln)

          item_sequence                    endpoint  numeric_value
0  CCAGAGCAAUAUUACGGAAA  self-splicing fitness (ln)          -3.62
1  GGUCAGCAAUAUUACGAGAG  self-splicing fitness (ln)          -3.37
2  UAUGAGCAAUAUUACGUUAA  self-splicing fitness (ln)          -4.12

----------
experiment: self-splicing fitness, log relative to wild type (ln ratio); higher = more splicing; Tetrahymena group I intron in knt gene, E. coli kanamycin selection, DiMSum; sequences stand for … in CUCUCU…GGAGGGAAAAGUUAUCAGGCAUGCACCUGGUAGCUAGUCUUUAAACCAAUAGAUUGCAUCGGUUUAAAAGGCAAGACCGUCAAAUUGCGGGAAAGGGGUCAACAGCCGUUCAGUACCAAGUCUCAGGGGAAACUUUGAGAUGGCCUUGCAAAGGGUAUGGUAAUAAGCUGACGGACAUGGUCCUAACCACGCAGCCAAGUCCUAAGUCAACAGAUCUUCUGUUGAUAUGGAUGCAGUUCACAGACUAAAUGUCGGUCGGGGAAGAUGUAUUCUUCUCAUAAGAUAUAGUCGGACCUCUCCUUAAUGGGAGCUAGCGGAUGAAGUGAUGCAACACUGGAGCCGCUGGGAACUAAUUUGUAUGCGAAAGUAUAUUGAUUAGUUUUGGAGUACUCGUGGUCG; settings: 37 °C
Quick list: self-splicing fitness (ln) per entry.
Endpoint: self-splicing fitness (ln)

>>> print(df.to_string())
           item_sequence  result
 0  AUUGAGCAAUAUUACGACAU  -0.153
 1  AGCCAGCAAUAUUACGCUUA    -1.4
 2  CGCUAGCAAUAUUACGAGUA  -0.525
 3  UUCGAGCAAUAUUACGAGCA  -0.946
 4  CACUAGCAAUAUUACGGUAA  -0.923
 5  GGUGAGCAAUAUUACGCGCA  -0.146
 6  UCACAGCAAUAUUACGCCGC   -2.69
 7  CUUCAGCAAUAUUACGCUAA    -2.3
 8  CACCAGCAAUAUUACGCAGA   -2.57
 9  GCGAAGCAAUAUUACGAUGU   -1.42
10  UUGUAGCAAUAUUACGACAA  -0.283
11  AAUCAGCAAUAUUACGGUGA   0.345
12  UUCUAGCAAUAUUACGCAUA  -0.774
13  AACUAGCAAUAUUACGCUGU   -3.84
14  GGGUAGCAAUAUUACGGAAC   -1.49
15  ACAUAGCAAUAUUACGUUAG   -1.66
16  CGUUAGCAAUAUUACGCAAG   -1.18
17  GCUUAGCAAUAUUACGGGCA  -0.778
18  CGUAAGCAAUAUUACGCGUC   -2.87
19  AUCUAGCAAUAUUACGGAGU   -1.52
20  UCCUAGCAAUAUUACGGCGU  -0.557
21  CUAGAGCAAUAUUACGAAGC   -1.45
22  CGCAAGCAAUAUUACGAUGA  -0.853
23  AUGAAGCAAUAUUACGUCUU   -1.44
24  UGGUAGCAAUAUUACGGGGG   -2.45
25  UUUCAGCAAUAUUACGCCUU  -0.883
26  CCCCAGCAAUAUUACGACUU      -3
27  AAGGAGCAAUAUUACGACGC   -1.13
28  AUGCAGCAAUAUUACGCGUA   -1.71
29  GCGGAGCAAUAUUACGGUUC   -1.69
30  UGCAAGCAAUAUUACGAUGG   -0.29
31  GUGCAGCAAUAUUACGAAAG   -2.38
32  CGUAAGCAAUAUUACGGCCG  0.0976
33  CAGAAGCAAUAUUACGCACC    -2.1
34  AUGUAGCAAUAUUACGCACG   0.147
35  UUUGAGCAAUAUUACGGGAU   -3.24
36  CCAUAGCAAUAUUACGGUCC   -1.99
37  CAUAAGCAAUAUUACGAGAA   -2.27
38  AGGAAGCAAUAUUACGAUGG   -1.88
39  CUCAAGCAAUAUUACGGUAU   -2.08
40  CGUGAGCAAUAUUACGCGUA   -1.86
41  CCCCAGCAAUAUUACGGCGC   -2.98
42  UGAGAGCAAUAUUACGAAGU   -2.55
43  AUCGAGCAAUAUUACGUGGA   -2.33
44  GUUUAGCAAUAUUACGUGAU  -0.419
45  UUUGAGCAAUAUUACGACAU   -2.43
46  UUAGAGCAAUAUUACGGCUU   -1.79
47  GAAAAGCAAUAUUACGCACC  -0.377
48  GAUAAGCAAUAUUACGAUUC   -1.41
49  GGGUAGCAAUAUUACGAUCA  0.0752
50  AACAAGCAAUAUUACGUCAC   -2.29
51  GCAAAGCAAUAUUACGGCCG   -1.41
52  CUUAAGCAAUAUUACGUACC   -0.17
53  UCUGAGCAAUAUUACGAGGC   -2.39
54  CGUUAGCAAUAUUACGGGGU   -2.03
55  UUUCAGCAAUAUUACGUAUC    -1.5
56  GUGAAGCAAUAUUACGGAUG  -0.586

----------
experiment: self-splicing fitness, log relative to wild type (ln ratio); higher = more splicing; Tetrahymena group I intron in knt gene, E. coli kanamycin selection, DiMSum; sequences stand for … in CUCUCU…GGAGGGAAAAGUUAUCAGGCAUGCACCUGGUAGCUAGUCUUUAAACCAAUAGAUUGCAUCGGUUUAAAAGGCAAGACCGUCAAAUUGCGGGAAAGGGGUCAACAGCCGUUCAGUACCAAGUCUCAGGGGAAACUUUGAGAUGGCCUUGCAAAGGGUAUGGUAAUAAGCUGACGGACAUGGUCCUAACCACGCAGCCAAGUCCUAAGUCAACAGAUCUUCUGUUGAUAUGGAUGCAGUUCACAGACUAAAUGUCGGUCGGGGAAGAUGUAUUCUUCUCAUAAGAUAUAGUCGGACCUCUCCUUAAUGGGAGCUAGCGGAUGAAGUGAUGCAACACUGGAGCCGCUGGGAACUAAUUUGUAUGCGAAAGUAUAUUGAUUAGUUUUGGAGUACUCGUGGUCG; settings: 37 °C
Examples of sequences with documented self-splicing fitness (ln) follow.
Endpoint: self-splicing fitness (ln)

           item_sequence  numeric_value
 0  GGAGAGCAAUAUUACGAACU          -1.92
 1  UCGCAGCAAUAUUACGCCCA         0.0722
 2  AUAUAGCAAUAUUACGUCCU          0.119
 3  CUCGAGCAAUAUUACGACAG          -1.42
 4  UUAUAGCAAUAUUACGACGG         -0.144
 5  CAAAAGCAAUAUUACGUCGU          -1.54
 6  AAUGAGCAAUAUUACGUUCU          -1.21
 7  GAAUAGCAAUAUUACGUACA         -0.774
 8  UGAGAGCAAUAUUACGCUAU          -1.48
 9  GAUCAGCAAUAUUACGGUAG          0.269
10  GAGCAGCAAUAUUACGGUCU         -0.857
11  UCCGAGCAAUAUUACGGGGU          -2.45
12  CCUUAGCAAUAUUACGUUAG          -2.67
13  GUGUAGCAAUAUUACGGUAA          -1.49
14  AGAAAGCAAUAUUACGCAGG           -1.4
15  CAACAGCAAUAUUACGCUUC          -2.18
16  ACGAAGCAAUAUUACGAUCC         -0.136
17  UAUAAGCAAUAUUACGGAAG          -2.05
18  GACUAGCAAUAUUACGUUCG         -0.787
19  CCCUAGCAAUAUUACGGCAC           -1.5
20  CUAUAGCAAUAUUACGUUGA          -3.42
21  GAUGAGCAAUAUUACGCCAA          -2.61
22  AGGGAGCAAUAUUACGACUA          -1.98
23  GCGAAGCAAUAUUACGUAGU          -2.13
24  GGCAAGCAAUAUUACGUGCG         -0.197
25  ACCGAGCAAUAUUACGCAAC          -0.42
26  UCCGAGCAAUAUUACGCCAA           -2.4
27  UGUCAGCAAUAUUACGACAU          -2.58
28  CUUAAGCAAUAUUACGGUGA          -2.17
29  ACGCAGCAAUAUUACGCACU          0.479
30  AACAAGCAAUAUUACGAGGA          -2.42
31  GCCCAGCAAUAUUACGUCCC          0.384
32  ACCUAGCAAUAUUACGUGGA          -1.62
33  UGCGAGCAAUAUUACGACUA          -1.09
34  AUCCAGCAAUAUUACGGUGC          -1.27
35  AACCAGCAAUAUUACGUAUG         -0.882
36  ACAUAGCAAUAUUACGAGUA           -1.8
37  UCUUAGCAAUAUUACGGCGU          -1.19
38  AUUUAGCAAUAUUACGUGGA          -2.04
39  AGACAGCAAUAUUACGAAAC          -2.66
40  AUCAAGCAAUAUUACGGAAA           -1.7
41  GUUGAGCAAUAUUACGUGUU          -2.29
42  CCCUAGCAAUAUUACGCCCC          -3.05
43  GAGAAGCAAUAUUACGCGCC         -0.596
44  CAAUAGCAAUAUUACGAAGC          -2.73
45  CAUGAGCAAUAUUACGCAUU          -2.03
46  CAGUAGCAAUAUUACGACUC          0.539
47  ACGUAGCAAUAUUACGUGAU          -1.63
48  UUCCAGCAAUAUUACGAAAC          -2.29
49  AAUGAGCAAUAUUACGGAUU          -1.04
50  AAUUAGCAAUAUUACGCGUU          -2.61
51  GCGGAGCAAUAUUACGCAAG           -2.3
52  GUGUAGCAAUAUUACGAUAU         -0.881
53  CGGCAGCAAUAUUACGUGGU          -1.93
54  CACGAGCAAUAUUACGUCCG         -0.226
55  ACACAGCAAUAUUACGCCAC          -2.66
56  GGCAAGCAAUAUUACGGCUU          0.644
57  GUGCAGCAAUAUUACGUGAG         -0.117
58  UGUUAGCAAUAUUACGUCCU         -0.516
59  AGCUAGCAAUAUUACGCUUU          -2.57
60  GCAUAGCAAUAUUACGACUC          0.841
